- Target Or System: T1, human PRLR on cells (endogenous on T47D, T47D#11, MCF7); introduced in HEK293/hPRLR/STAT5-Luc, 293/hPRLR, … (human, UniProt P16471 25-622)
- T1 sequence: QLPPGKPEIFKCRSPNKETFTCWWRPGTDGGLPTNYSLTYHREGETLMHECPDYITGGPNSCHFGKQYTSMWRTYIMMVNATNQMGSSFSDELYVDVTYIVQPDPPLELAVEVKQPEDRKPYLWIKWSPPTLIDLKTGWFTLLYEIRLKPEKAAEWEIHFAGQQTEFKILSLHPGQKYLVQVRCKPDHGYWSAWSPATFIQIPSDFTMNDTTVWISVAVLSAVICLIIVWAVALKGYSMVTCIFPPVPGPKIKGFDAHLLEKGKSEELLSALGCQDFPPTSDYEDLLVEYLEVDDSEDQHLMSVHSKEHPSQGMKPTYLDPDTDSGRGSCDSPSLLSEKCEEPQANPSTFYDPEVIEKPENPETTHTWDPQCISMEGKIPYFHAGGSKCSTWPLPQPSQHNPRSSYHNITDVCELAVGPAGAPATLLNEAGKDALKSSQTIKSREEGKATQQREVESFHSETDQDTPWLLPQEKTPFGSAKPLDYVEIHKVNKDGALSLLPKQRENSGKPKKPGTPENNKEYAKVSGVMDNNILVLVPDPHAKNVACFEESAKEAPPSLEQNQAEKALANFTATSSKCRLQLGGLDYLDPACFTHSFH
- Assay Overview: cell-based or functional assay
Item-by-item account of Percent Blocking at 100 nM Antibody (STAT5-Luc reporter)
Kindly provide the numeric value in % only, without the unit symbol.

The following binders have reported results that may help.
{"Binder": "H1H6801P (antibody, human IgG1, V domains shown, human IgG1 Fc (H1H)) VH: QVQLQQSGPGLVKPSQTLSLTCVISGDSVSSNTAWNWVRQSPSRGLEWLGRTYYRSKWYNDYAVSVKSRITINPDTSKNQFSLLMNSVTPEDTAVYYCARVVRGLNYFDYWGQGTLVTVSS VL: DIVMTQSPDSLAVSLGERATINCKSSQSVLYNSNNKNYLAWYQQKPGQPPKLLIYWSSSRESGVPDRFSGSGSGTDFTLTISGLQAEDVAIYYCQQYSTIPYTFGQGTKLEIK", "Measured Number": 100}
{"Binder": "H1H6975N (antibody, human IgG1, V domains shown, also called H2M6975N) VH: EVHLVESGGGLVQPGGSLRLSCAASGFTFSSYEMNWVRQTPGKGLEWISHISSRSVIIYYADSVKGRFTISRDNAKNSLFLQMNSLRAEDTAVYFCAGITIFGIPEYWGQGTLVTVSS VL: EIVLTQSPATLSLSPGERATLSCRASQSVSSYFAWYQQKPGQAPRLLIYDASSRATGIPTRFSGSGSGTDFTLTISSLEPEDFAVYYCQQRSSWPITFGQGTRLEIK", "Measured Number": 100}

Now consider the entry below.
Entry under review: H1H6781P (antibody, human IgG1, V domains shown, human IgG1 Fc (H1H)) VH: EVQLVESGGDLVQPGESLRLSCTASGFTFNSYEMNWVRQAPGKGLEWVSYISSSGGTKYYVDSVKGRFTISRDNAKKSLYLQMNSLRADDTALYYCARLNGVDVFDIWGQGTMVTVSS VL: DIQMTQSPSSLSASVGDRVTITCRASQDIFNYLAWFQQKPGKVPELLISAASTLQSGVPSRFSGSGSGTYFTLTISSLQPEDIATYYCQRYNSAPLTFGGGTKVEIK . Reported Percent Blocking at 100 nM Antibody (STAT5-Luc reporter)?
100
